Data credit: PubChem BioAssay (NCATS)

Test system: Zika virus NS2B-NS3 protease
Assay: Primary screen GU AMC qHTS for Zika virus inhibitors (AID 1347154); further: nearly all actives have a fitted effect of over 70% in size
Details: Zika NS2B-NS3 unlinked protease, AMC fluorogenic substrate; series mostly up to 54.1 µM
Inconclusive results are not listed. Activity calls are given as the source filed them. The call rests on the fitted dose curve; in most records, active means well fitted inhibition curve with a large enough effect; inconclusive means small, poorly fitted or top-dose-only effect; inactive means flat fitted curve, though single readings scatter.
Your answer must be one of the following: active, inactive

molecule	group.label
OCCCBr	inactive
COc1ccc(N(C(=O)Oc2c(C)cccc2C)c2ccnc(Nc3ccc(N4CCN(C)CC4)cc3)n2)c(OC)c1	inactive
COc1nn(CSP(=S)(OC)OC)c(=O)s1	inactive

Query: recorded result category for Cc1cc(O)ccc1Cl in this test
inactive

Please state the recorded outcome for this molecule: CCN1CCN(C(=O)Cc2ccc(Nc3ncc(F)c(Nc4ccc(C(=O)Nc5ccccc5Cl)cc4)n3)cc2)CC1
inactive

For O=C(NCC1CCOCC1)c1cnc(Nc2ccc(Cl)cc2Cl)nc1C(F)(F)F , what call appears in the results of this test?
inactive

Name the outcome recorded for O=C(Nc1ccncc1)C(=O)c1cn(Cc2ccc(Cl)cc2)c2ccccc12 in the assay.
inactive

// param item: O=[N+]([O-])c1ccc([As](=O)(O)O)cc1 ; yields the recorded call
inactive

Tell me the assay call for C[C@H]([C@H](O)CCC(C)(C)O)[C@H]1CC[C@@]2(O)C3=CC(=O)[C@@H]4C[C@@H](O)[C@@H](O)C[C@]4(C)[C@@H]3CC[C@]12C please.
inactive

Would you mind telling me which call this test gave O=C(O)CNC(=O)c1c(O)c2ccccc2n(Cc2ccccc2)c1=O ?
inactive

Identify the outcome logged in this assay for the molecule shown: CC[C@@H]1[C@@H](C)O[C@@](O)([C@@H](C)[C@H](O)[C@H](C)[C@H]2OC(=O)C=CC=C[C@@H](C)[C@@H]([C@@H](C)[C@@H](O)[C@H](C)[C@@]3(O)C[C@H](O[C@H]4C[C@H](O)[C@H](O)[C@H](C)O4)[C@H](CC)[C@@H](C)O3)OC(=O)C=CC=C[C@@H]2C)C[C@H]1O[C@H]1C[C@H](O)[C@H](O)[C@H](C)O1
inactive

Recorded test call requested for C=CCON=C(C[C@H]1O[C@@H]2O[C@]3(C)CC[C@@H]4[C@H](C)CC[C@@H]([C@H]1C)[C@@]24OO3)[C@H]1O[C@@H]2O[C@]3(C)CC[C@H]4[C@H](C)CC[C@@H]([C@@H]1C)[C@@]24OO3
inactive

Status in this test for CC(O)=C(C#N)C(=O)Nc1cc(Br)ccc1Br ?
inactive

Test call, this molecule: O=C(N[C@H]1CN2CCC1CC2)c1ccc(Cl)cc1
inactive

Test call for this molecule, please: O=C1CCCN1CC#CCN1CCCC1
inactive

Lab log entry: CCCC[N+]1(C)[C@H]2CC(OC(=O)[C@H](CO)c3ccccc3)C[C@H]1[C@H]1O[C@H]12 (some centres undefined) — outcome as called in the assay?
inactive

Look up the recorded call for CC1=C(C(=O)O)N2C(=O)[C@@H](N)[C@H]2SC1 in this test.
inactive

Please state the recorded outcome for this molecule: O=S(=O)(F)Cc1ccccc1
inactive

What is the recorded call for this molecule in the test? C#CC1(O)CCC2C3CCC4=CC(=O)CCC4(C)C3CCC21C (centres undefined)
inactive

Query: recorded result category for CCOC(=O)c1cncn1[C@H](C)c1ccccc1 in this test
inactive

Hi, do you know how O=C(Cc1ccc(Cl)c(Cl)c1)N1CCCCC1CN1CCCC1 (centres undefined) came out in this test?
inactive

Check the results log: what was the call for C#C[C@]1(O)C=C[C@@H]2[C@@H]3CCC4=CC(=O)CC[C@@H]4[C@H]3CC[C@@]21CC ?
inactive

Hey, what did the test say about CCC(=O)OC1CCC2C3CCC4=CC(=O)CC[C@@]4(C)C3CC[C@]12C (some centres undefined) ?
inactive

Each molecule tested received a call. Report the one for c1cc2ccc3cccc4ccc(c1)c2c34 .
active

Each molecule tested received a call. Report the one for O=C(N[C@@H](COc1ccc2[nH]c(=O)[nH]c2c1)c1ccccc1)c1cccn(Cc2ccc(F)c(F)c2)c1=O .
inactive

Test call, this molecule: COC(=O)[C@@H](N)CCCN=C(N)N[N+](=O)[O-]
inactive

Each molecule tested received a call. Report the one for CCCN(CCC)C1CCc2ccc(O)cc2C1 (centres undefined) .
inactive

Answer briefly: the call reported for C[C@@H]1[C@H](O)[C@@H](C)C=CC=CCCC=CC=CC=CC=C[C@H](O[C@H]2O[C@@H](C)[C@H](O)[C@@H](N)[C@@H]2O)CC2O[C@](O)(C[C@@H](O)[C@H](O)CC[C@@H](O)C[C@@H](O)C[C@@H](O)CC(=O)O[C@H]1C)C[C@H](O)[C@H]2C(=O)O in this assay.
inactive

Hey, what did the test say about C=C[C@@H]1CN2CCC1C[C@@H]2[C@@H](O)c1ccnc2ccccc12 (some centres undefined) ?
inactive
